tested on: Bacillus anthracis; test: Antibacterial activity against Bacillus anthracis Sterne 34F2 after overnight incubation by microbroth dilution technique; format: functional
Assignment: determine reported MIC for the given compounds.
The response must be a number in µg/mL with no trailing unit.

query: Retrieve MIC measured for O=[N+]([O-])c1ccc(C2=NOC(c3ccc(N4CCOCC4)c(F)c3)C2)o1 (stereo unspecified) and print it.
result: 12.5

query: Retrieve MIC measured for O=[N+]([O-])c1ccc(C2=NOC(c3ccc(N4CC[S+]([O-])CC4)cc3)C2)o1 (stereo unspecified) and print it.
result: 12.5

query: Retrieve MIC measured for O=C1COCCN1c1ccc(C2CC(c3ccc([N+](=O)[O-])o3)=NO2)cc1F (stereo unspecified) and print it.
result: 25

query: Retrieve MIC measured for CN1CCN(c2ccc(C3CC(c4ccc([N+](=O)[O-])o4)=NO3)cc2)C(=O)C1 (stereo unspecified) and print it.
result: 12.5

query: Retrieve MIC measured for O=C1COCCN1c1ccc(C2CC(c3ccc([N+](=O)[O-])o3)=NO2)cn1 (stereo unspecified) and print it.
result: 25

query: Retrieve MIC measured for O=[N+]([O-])c1ccc(C2=NOC(c3ccc(N4CCOCC4)cc3)C2)o1 (stereo unspecified) and print it.
result: 12.5

query: Retrieve MIC measured for CN1CCN(c2ccc(C3CC(c4ccc([N+](=O)[O-])o4)=NO3)cn2)C(=O)C1 (stereo unspecified) and print it.
result: 25

query: Retrieve MIC measured for O=C1COCCN1c1ccc(C2CC(c3ccc([N+](=O)[O-])o3)=NO2)cc1 (stereo unspecified) and print it.
result: 25

query: Retrieve MIC measured for O=[N+]([O-])c1ccc(C2=NOC(c3ccc(N4CCOCC4)nc3)C2)o1 (stereo unspecified) and print it.
result: 25

query: Retrieve MIC measured for CN1CCN(c2ccc(C3CC(c4ccc([N+](=O)[O-])o4)=NO3)cc2F)C(=O)C1 (stereo unspecified) and print it.
result: 25
